Biological target: anti-H3K4me3 antibody ab8580
Assay: peptide microarray binding signal (635 nm), min-max normalized on array (fraction of array maximum); higher = stronger binding
Details: peptide region: Unmod H3 variant; binder concentration: 1:10,000 dilution
quantity: peptide microarray binding signal

1. VGLFEDTNLCAIH [Unmod H3 variant V G L F E D T N L C A I H]    0.000628
2. AIHAKRVTIMPKD [Unmod H3 variant A I H A K R V T I M P K D]    0.00211
3. QDFKTDLRFQSSA [Unmod H3 variant Q D F K T D L R F Q S S A]    0.00542
4. RVTIMPKDIQLAR [Unmod H3 variant R V T I M P K D I Q L A R]    0.00782
5. ATGGVKKPHRYRP [Unmod H3 variant A T G G V K K P H R Y R P]    0.000456
6. ATKAARKSAPSTG [Unmod H3 variant A T K A A R K S A P S T G]    0.00131
7. RKSAPATGGVKKP [Unmod H3 variant R K S A P A T G G V K K P]    0.00131
8. RKSAPSTGGVKKP [Unmod H3 variant R K S A P S T G G V K K P]    0.000799
9. ALQEASEAYLVGL [Unmod H3 variant A L Q E A S E A Y L V G L]    0.000799
10. TARKSTGGKAPRK [Unmod H3 variant T A R K S T G G K A P R K]    0.00114
